assay: xn = mol fraction of the nth substance listed; settings: 303.15 K; 100 kPa; Liquid; Vibrating tube method; x1 = 0.9
outcome_measure: mass density (kg/m3)

# compound, mass density (kg/m3)
data = [
    ("CN1CCC[C@H]1c1cccnc1 [(-)-3-(N-methylpyrrolidino)pyridine] + CCCCO", 991.866),
    ("CN1CCC[C@H]1c1cccnc1 [(-)-3-(N-methylpyrrolidino)pyridine] + CC(O)CO", 1004.77),
    ("CN1CCC[C@H]1c1cccnc1 [(-)-3-(N-methylpyrrolidino)pyridine] + OCCCO", 1006.61),
    ("CN1CCC[C@H]1c1cccnc1 [(-)-3-(N-methylpyrrolidino)pyridine] + CCC(C)O", 991.873),
]
